# pIC50 per record follows
Tested on: MOLT-4
Assay: Cell viability assay (MTS) in MOLT-4 cells
Type: cell-based
Settings: Homo sapiens, MOLT-4; Table 2A; 48 hr; MTS; read-out: Anti-Cancer Activity IC50 (48 hr) MOLT-4
pIC50: −log10 of the molar value.

Cc1ncsc1-c1ccc([C@H](C)NC(=O)[C@@H]2C[C@@H](O)CN2C(=O)[C@@H](NC(=O)CCCCS(=O)(=O)N2CCN(C[C@]3(C)CCC(c4ccc(Cl)cc4)=C(CN4CCN(c5ccc(C(=O)NS(=O)(=O)c6ccc(N[C@H](CCN7CCCOCC7)CSc7ccccc7)c(S(=O)(=O)C(F)(F)F)c6)cc5)CC4)C3)CC2)C(C)(C)C)cc1 7.00 to 7.70

INPUT: Would you mind telling me what pIC50 value was observed for Cc1ncsc1-c1ccc([C@H](C)NC(=O)[C@@H]2C[C@@H](O)CN2C(=O)[C@@H](NC(=O)CCCCC(=O)N2CCN(C3CCN(C[C@]4(C)CCC(c5ccc(Cl)cc5)=C(CN5CCN(c6ccc(C(=O)NS(=O)(=O)c7ccc(N[C@H](CCN8CCCOCC8)CSc8ccccc8)c(S(=O)(=O)C(F)(F)F)c7)cc6)CC5)C4)CC3)CC2)C(C)(C)C)cc1 ?
OUTPUT: > 7.70

---

System: RS4; 11
Test: Cell viability assay (MTS) in RS4; 11 cells
Assay type: cell-based
Conditions: Homo sapiens, RS4-11; Table 2; 48 hr; MTS; read-out: Anti-Cancer Activity IC50 (48 hr) RS4; 11
pIC50: −log10 of the molar value.
Listing of entries alongside the reported pIC50.

Molecule	pIC50
Cc1ncsc1-c1ccc([C@H](C)NC(=O)[C@@H]2C[C@@H](O)CN2C(=O)[C@@H](NC(=O)CCCCCCCCC(=O)N2CCN(CCC3(C)CCC(c4ccc(Cl)cc4)=C(CN4CCN(c5ccc(C(=O)NS(=O)(=O)c6ccc(N[C@H](CCN7CCOCC7)CSc7ccccc7)c(S(=O)(=O)C(F)(F)F)c6)cc5)CC4)C3)CC2)C(C)(C)C)cc1 (some centres unmarked)	7.00 to 7.70

# input for lookup
INPUT: Item Cc1ncsc1-c1ccc([C@H](C)NC(=O)[C@@H]2C[C@@H](O)CN2C(=O)[C@@H](NC(=O)CN2CCC(CC(=O)N3CCN(C[C@]4(C)CCC(c5ccc(Cl)cc5)=C(CN5CCN(c6ccc(C(=O)NS(=O)(=O)c7ccc(N[C@H](CCN8CCCOCC8)CSc8ccccc8)c(S(=O)(=O)C(F)(F)F)c7)cc6)CC5)C4)CC3)CC2)C(C)(C)C)cc1 has what recorded pIC50?
OUTPUT: > 7.70

---

Test system: RS4; 11
Assay: Cell viability assay (MTS) in RS4; 11 cells
Type: cell-based
Details: Homo sapiens, RS4-11; Table 2; 48 hr; MTS; read-out: Anti-Cancer Activity IC50 (48 hr) RS4; 11
pIC50: −log10 of the molar value.
Readout type: pIC50

Field: example entries. Status: answers known.
Compound	Readout type	Test result
Cc1ncsc1-c1ccc([C@H](C)NC(=O)[C@@H]2C[C@@H](O)CN2C(=O)[C@@H](NC(=O)CCCCCCC(=O)N2CCN(C[C@]3(C)CCC(c4ccc(Cl)cc4)=C(CN4CCN(c5ccc(C(=O)NS(=O)(=O)c6ccc(N[C@H](CCN7CCOC(C)C7)CSc7ccccc7)c(S(=O)(=O)C(F)(F)F)c6)cc5)CC4)C3)CC2)C(C)(C)C)cc1 (stereo partly drawn) [Compound 91]	pIC50	> 7.70
Cc1ncsc1-c1ccc([C@H](C)NC(=O)[C@@H]2C[C@@H](O)CN2C(=O)[C@@H](NC(=O)CCCCCCC(=O)N2CCN(C[C@]3(C)CCC(c4ccc(Cl)cc4)=C(CN4CCN(c5ccc(C(=O)NS(=O)(=O)c6ccc(N[C@H](CCN7CCCCCC7)CSc7ccccc7)c(S(=O)(=O)C(F)(F)F)c6)cc5)CC4)C3)CC2)C(C)(C)C)cc1 [Compound 60]	pIC50	> 7.70

INPUT: Reported pIC50 for Cc1ncsc1-c1ccc([C@H](C)NC(=O)[C@@H]2C[C@@H](O)CN2C(=O)[C@@H](NC(=O)CN2CCC(CN3CCN(CC4(C)CCC(c5ccc(Cl)cc5)=C(CN5CCN(c6ccc(C(=O)NS(=O)(=O)c7ccc(N[C@H](CCN8CCOCC8)CSc8ccccc8)c(S(=O)(=O)C(F)(F)F)c7)cc6)CC5)C4)CC3)CC2)C(C)(C)C)cc1 (stereo partly drawn) [Compound 16] : what is it?
OUTPUT: 7.00 to 7.70
